// provenance: PubChem BioAssay (NCI)

Tested on: SF-295 CNS
Experiment: NCI-60 one-dose screen, 48 h
Conditions: 10 µM unless noted
Compounds without any hit were thinned out: in the full panel of roughly 83,000, 20% have a hit. The source made the active and inactive calls. Rule for the calls: active = growth percent below 10; inactive = the rest.
Your answer must be one of the following: 1 (active), 0 (inactive)

Molecule: CCSc1cnnc2ccccc12
Class: 0

I'd appreciate the recorded outcome for `C(=Nc1ccc(-c2ccc(N=Cc3ccccc3)cc2)cc1)c1ccccc1` from this test.
0

Name the outcome recorded for `O=C(N/N=C/c1ccc([N+](=O)[O-])o1)c1ccc(O)cc1` in the assay.
0

Hi, do you know how `COc1ccccc1-[n+]1cc(-c2ccc(-c3ccccc3)cc2)n2c1CCCCC2` came out in this test?
1

Lab log entry: `CCC(=O)NC1=C(Cl)C(=O)C(NC(=O)CC)=C(Cl)C1=O` — outcome as called in the assay?
0

I'd appreciate the recorded outcome for CCOC(=O)C1=C(C(=O)OCC)N(c2cc(OC)c(OC)c(OC)c2)C(N)=C(C#N)C1c1cc(=O)[nH]c2ccccc12 (stereo not drawn) from this test.
0

Which outcome was entered for the molecule `COc1ccc(CNc2c3ccccc3nc3ccc(OC)cc23)cc1` in this test?
0

What did the test return for CCN1C(=O)N(CC)C2C1NC(=O)N2/N=C/C=C/c1ccccc1 (stereo not drawn) ?
0

Hello, I am checking results. What call was entered for CCN1C(=O)C(C)C=C(C)C=C1C (stereo not drawn) ?
0

Could you kindly confirm the outcome this assay logged for `ClCc1c(Cl)c(Cl)c(Cl)c(CCl)c1Cl` ?
0

// outcome(item) with item = `Clc1nnc2c3ccccc3ccn12`
0

---

Test system: UACC-62 melanoma
Assay: NCI-60 one-dose screen, 48 h
Conditions: 10 µM unless noted
About 83,000 compounds went through this panel and 20% of them were active in at least one assay; those are over-represented in the sample as a whole. The source made the active and inactive calls. The calls were made as follows: active = growth percent below 10; inactive = the rest.
Output constraint: value belongs to active, inactive

Example entries begin here.
Compound: Cc1ccccc1Nc1n[nH]c(Cc2ccccc2)n1
Class: inactive
--
Compound: S=C(S)Oc1cccc2cccnc12
Class: inactive

Please turn your attention to the following entry.
Dear colleague, could you share the recorded outcome for `O=C1Nc2ccc(Br)cc2/C1=N/c1nc(-c2ccccc2)cs1` when you have a moment?
inactive

---

System: UACC-62 melanoma
Test: NCI-60 one-dose screen, 48 h
Details: 10 µM unless noted
About 83,000 compounds went through this panel and 20% of them were active in at least one assay; those are over-represented in the sample as a whole. The source made the active and inactive calls. The calls were made as follows: active = growth percent below 10; inactive = the rest.
Classes to choose from: class 1 for active, class 0 for inactive

Example entries and their recorded answers appear below.
Molecule: CC1OC(n2c3ccccc3c3c4c(c5c6ccccc6[nH]c5c32)C(=O)N(CCN2CCOCC2)C4=O)CC(O)C1O (configuration not stated)
Target Or System: UACC-62 melanoma
Class: class 0

Molecule: CCN(CC)CC(=O)Nc1c(C)ccc(N)c1C
Target Or System: UACC-62 melanoma
Class: class 0

Molecule: NNC(=O)CSc1nc2scc(-c3ccccc3)c2c(=O)n1-c1ccccc1
Target Or System: UACC-62 melanoma
Class: class 0

Molecule: COc1cc(-c2nc(-c3ccc(-c4nc5ccc(F)cc5[nH]4)cc3)no2)cc(OC)c1OC
Target Or System: UACC-62 melanoma
Class: class 0

Molecule: CN(C)c1nc(-c2ccco2)n2nc(-c3ccc(Cl)cc3)cc2n1
Target Or System: UACC-62 melanoma
Class: class 0

Molecule: COc1ccc(-c2nn(C(=O)NCCN(C)C)cc2-c2ccncc2)cc1Cl
Target Or System: UACC-62 melanoma
Class: class 0

Molecule: Brc1ccsc1Br
Target Or System: UACC-62 melanoma
Class: class 0

Molecule: O=S(=O)(Nc1ccc2ccccc2c1)N1CCCCC1
Target Or System: UACC-62 melanoma
Class: class 0

Molecule: CCCCCCCCCCCC1=NC(C)(C)CN1C(C)C
Target Or System: UACC-62 melanoma
Class: class 1

Molecule: CN1C(=O)N(C)C2C1NN=c1s/c(=C\c3ccsc3)c(=O)n12 (configuration not stated)
Target Or System: UACC-62 melanoma
Class: class 0

Name the outcome recorded for `OC(COCc1ccccc1)COCc1ccccc1` in the assay.
class 0

What call does the record list for `O=[N+]([O-])c1ccc(SSc2ccc([N+](=O)[O-])cc2Cl)c(Cl)c1` ?
class 0

Hi team, can someone confirm the assay call for `c1ccc(CCn2cccc2)nc1` ?
class 0

Hi, do you know how `O=C(CSc1nc2c(n1Nc1ccccc1)-c1ccccc1SC2)Nc1nccs1` came out in this test?
class 0

---

Test system: NCI-H460 lung
Assay: NCI-60 one-dose screen, 48 h
Settings: 10 µM unless noted
This is part of a sample that, as a whole, favours compounds with a hit. Of some 83,000 tested, about 20% had one in any assay. The source made the active and inactive calls. How the source made its calls: active means growth percent below 10; inactive means the rest.
Can you answer with just one of these options? active, inactive

Solved cases (5 shown):
Compound: N=C(N)c1ccc(-c2ccc(-c3ccco3)o2)cc1F
Target Or System: NCI-H460 lung
Class: active

Compound: O=C(Nc1cccc(Cl)c1)Nc1ccccc1Cl
Target Or System: NCI-H460 lung
Class: inactive

Compound: CCOC(=O)c1cc(C(=O)OCC)c(C)nc1C
Target Or System: NCI-H460 lung
Class: inactive

Compound: Cc1cc2nc(CN)[nH]c2cc1C
Target Or System: NCI-H460 lung
Class: inactive

Compound: COc1cc(C2CC(c3ccc(Cl)cc3)=NN2C=O)ccc1Oc1ccnc2cc(Cl)ccc12 (centres undefined)
Target Or System: NCI-H460 lung
Class: inactive

For CCSCC1CC(O)(c2ccccc2)C(c2ccccc2)C(c2ccc(F)cc2)O1 (centres undefined) , what call appears in the results of this test?
active

Identify the outcome logged in this assay for the compound shown: `COc1cc2c(=O)n(CCCN(C)C)c3c4cc[nH]c4ncc3c2cc1OC`
inactive

Which outcome did this test record for the compound CC1=CC(=O)OC1C/C=C(\C)CCC1[C@@]2(C)CCC[C@@](C)(C(=O)O)C2CC[C@@]1(C)O (some centres undefined) ?
active

# lookup: test call for `COc1cc(/C=C/c2cc(/C=C/c3ccc(O)c(OC)c3)n(C(=O)c3ccccc3Br)n2)ccc1O`
active

Which outcome was assigned to C=CCOC(=O)C1=C(C)NC2=C(C(=O)CC(C)(C)C2)C1c1ccc(OC)cc1 (centres undefined) in this test?
inactive

---

System: MOLT-4 leukemia
Assay: NCI-60 one-dose screen, 48 h
Conditions: 10 µM unless noted
This is part of a sample that, as a whole, favours compounds with a hit. Of some 83,000 tested, about 20% had one in any assay. The source made the active and inactive calls. The calls were made as follows: active = growth percent below 10; inactive = the rest.
Log the outcome using a class from active, inactive

// known answers, use as guide
Compound: Fc1ccc(-c2nc(-c3ccc(-c4nc5ccc(F)cc5[nH]4)cc3)no2)cc1
Class: inactive

Compound: O=C(N/N=C\c1cc(Br)ccc1O)c1ccncc1
Class: active

Compound: CC[C@]1(O)C[C@H]2CN(CCc3c([nH]c4ccccc34)C(C(=O)OC)(c3cc4c(cc3OC)N(C)[C@H]3[C@@](O)(C(=O)OC)[C@H](OC(C)=O)[C@]5(CC)[C@@H]6C[C@@H]6CN6CC[C@]43[C@@H]65)C2)C1 (some centres undefined)
Class: active

Compound: CC(=O)N1N=C(C2C(=O)N(C)C(=O)N(C)C2=O)CC1c1ccccc1C(=O)O (centres undefined)
Class: inactive

Compound: CCN1C(=O)C(C)C=C(C)C=C1C (centres undefined)
Class: inactive

Compound: COc1cc2c(cc1OC)-c1cc(OC)c(OC)cc1C(CN(C)C)C2 (centres undefined)
Class: inactive

Compound: CCCCc1nc(Cl)c(C2CC(c3ccc(S(N)(=O)=O)cc3)=NN2c2cc(Cl)cc(Cl)c2)[nH]1 (centres undefined)
Class: inactive

Compound: CC(C)[C@@]12C[C@@H](OC(=O)[C@H]3CO3)[C@@](C)(O1)[C@@H]1CC[C@@H](C)[C@H]1[C@@H]2OC(=O)/C=C/c1ccccc1
Class: inactive

Now turn to the next compound.
Recorded test call requested for `Cc1ccc(C(=O)CC(=O)C(F)(F)C(F)(F)C(F)(F)F)s1`
inactive

---

Would you mind telling me the reported growth of each entry?
Test system: DU-145 prostate
Assay: NCI-60 one-dose screen, 48 h (100 = growth as untreated, 0 = no growth, -100 = all killed)
Details: 10 µM unless noted
Compounds without any hit were thinned out: in the full panel of roughly 83,000, 20% have a hit.
Numbers only, in %.

Molecule: CCCCCCCCN=C(NCCCCCCCC)SCc1cccc2ccccc12
Target Or System: DU-145 prostate
Measurement Kind: growth
Readout Number: -74.3
//
Molecule: CC1=CCC2C1CC=C(C)C(CC[C@H]1[C@@](C)(O)CCC3OC(C)(C)[C@H](OC(=O)c4ccccc4)CC[C@@]31C)C2(C)C (stereo not given in full)
Target Or System: DU-145 prostate
Measurement Kind: growth
Readout Number: 106

List reported growth for each of these molecules:
1. COc1cc(C2CC(c3ccc(C)cc3)=NN2C=O)ccc1Oc1nc2c(c(=O)n(C)c(=O)n2C)n1C (stereo not given)
2. Clc1ccccc1CNc1c2ccccc2nc2ccccc12
3. CC(SC(C)C(=O)N/N=C/c1cccc(Cl)c1)C(=O)N/N=C\c1cccc(Cl)c1 (stereo not given)

1. 64.5
2. 31.8
3. 71.9
